- Test system: Mus musculus
- test: Toxicity against Swiss albino mouse assessed as mortality at 30 to 100 mg/kg, ip
- Format: organism-based
- Design: dose 30-100 mg/kg, route intraperitoneal
- experimental_conditions: in vivo
readout_kind: Activity

> print(dat)
                             molecule  readout.kind  experimental.result
 1           CC(C)(O)C(=O)NCCc1ccccc1      Activity            Non-toxic
 2            CC(C)(O)C(=O)NCc1ccccc1      Activity            Non-toxic
 3                 CCCCNC(=O)C(C)(C)O      Activity            Non-toxic
 4   CCCCNC(=O)C(O)(c1ccccc1)c1ccccc1      Activity            Non-toxic
 5         CCCN1C(=O)C(C)(C)OS1(=O)=O      Activity            Non-toxic
 6                  CCCNC(=O)C(C)(C)O      Activity            Non-toxic
 7  CC1(C)OS(=O)(=O)N(CCc2ccccc2)C1=O      Activity            Non-toxic
 8             CC(C)(O)C(=O)NC1CCCCC1      Activity            Non-toxic
 9   CC1(C)OS(=O)(=O)N(Cc2ccccc2)C1=O      Activity            Non-toxic
10        CCCCN1C(=O)C(C)(C)OS1(=O)=O      Activity            Non-toxic
